Tested on: U2OS
Assay: Multiplex assay against U2OS
Type: toxicity, cell-based
Conditions: human, 24 h, 1 µM, compound concentration 1 uM, replicate 2
Recorded Population Hoechst High Intensity Objects (%) by entry
ASSAY_READOUT: Population Hoechst High Intensity Objects (%)

INSERT INTO measurements (compound, study_system, result) VALUES
  ('CC[C@H](Nc1ncnc2[nH]cnc12)c1nc2cccc(F)c2c(=O)n1-c1ccccc1', 'U2OS', '5%'),
  ('Cl.NC[C@@H]1O[C@H](C23CC4CC(CC(C4)C2)C3)Cc2c1ccc(O)c2O', 'U2OS', '2%'),
  ('CCCCCNC(=N)N/N=C/c1c[nH]c2ccc(OC)cc12.O=C(O)/C=C\C(=O)O [TEGASEROD MALEATE]', 'U2OS', '5%'),
  ('N#CCNC(=O)c1ccc(-c2ccnc(Nc3ccc(N4CCOCC4)cc3)n2)cc1', 'U2OS', '10%');
